biological target: T1, rHuman EGF R/Fc Chimera, CF (R&D Systems Cat#344-ER) (human, UniProt P00533 25-645); assay: ECL multispot (MSD), antigen spotted, Fab in solution;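 further: purified Fab incubated 1 h at 20 °C on antigen-spotted wells, bound Fab detected via TAG detection antibody, ECL compared with each well's blank, ratio of 4 or above scored as hit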
T1 construct: Bought recombinant Fc chimera; also called epidermal growth factor receptor; Fc part of the bought chimera not given
MEASURE_NAME: ECL signal

* Fab VH1-46_IGHD6-6*01_IGHJ1*01 S102A/S103P/S104F/H111F (APFF) & L6_IGKJ1*01 S28H (Fab, V domains shown, Fab; VH cloned into Plasmid A (CH1, His6 and Flag tags) and VL into Plasmid C (kappa CL); also called APFF / S28H) VH: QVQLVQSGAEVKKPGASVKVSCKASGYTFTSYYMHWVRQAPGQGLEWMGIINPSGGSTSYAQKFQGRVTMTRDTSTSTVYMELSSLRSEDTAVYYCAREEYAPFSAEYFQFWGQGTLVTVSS VL: EIVLTQSPATLSLSPGERATLSCRASQHVSSYLAWYQQKPGQAPRLLIYDASNRATGIPARFSGSGSGTDFTLTISSLEPEDFAVYYCQQRSNWPPWTFGQGTKVEIKR | 435
* Fab VH1-46_IGHD6-6*01_IGHJ1*01 S102A/S103P/S104F/H111F (APFF) & L6_IGKJ1*01 S28N (Fab, V domains shown, Fab; VH cloned into Plasmid A (CH1, His6 and Flag tags) and VL into Plasmid C (kappa CL); also called APFF / S28N) VH: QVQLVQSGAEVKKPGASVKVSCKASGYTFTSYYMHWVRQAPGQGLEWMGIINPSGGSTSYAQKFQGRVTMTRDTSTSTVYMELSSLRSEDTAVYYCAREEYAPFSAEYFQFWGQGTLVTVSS VL: EIVLTQSPATLSLSPGERATLSCRASQNVSSYLAWYQQKPGQAPRLLIYDASNRATGIPARFSGSGSGTDFTLTISSLEPEDFAVYYCQQRSNWPPWTFGQGTKVEIKR | 325
* Fab VH1-46_IGHD6-6*01_IGHJ1*01 S102A/S103P/S104F/H111F (APFF) & L6_IGKJ1*01 S30L (Fab, V domains shown, Fab; VH cloned into Plasmid A (CH1, His6 and Flag tags) and VL into Plasmid C (kappa CL); also called APFF / S30L) VH: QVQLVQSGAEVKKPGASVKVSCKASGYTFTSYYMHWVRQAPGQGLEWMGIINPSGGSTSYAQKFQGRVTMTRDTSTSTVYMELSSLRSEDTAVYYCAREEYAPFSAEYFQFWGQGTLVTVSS VL: EIVLTQSPATLSLSPGERATLSCRASQSVLSYLAWYQQKPGQAPRLLIYDASNRATGIPARFSGSGSGTDFTLTISSLEPEDFAVYYCQQRSNWPPWTFGQGTKVEIKR | 406
* Fab VH1-46_IGHD6-6*01_IGHJ1*01 S102A/S103P/S104F/H111F (APFF) & L6_IGKJ1*01 S28I (Fab, V domains shown, Fab; VH cloned into Plasmid A (CH1, His6 and Flag tags) and VL into Plasmid C (kappa CL); also called APFF / S28I) VH: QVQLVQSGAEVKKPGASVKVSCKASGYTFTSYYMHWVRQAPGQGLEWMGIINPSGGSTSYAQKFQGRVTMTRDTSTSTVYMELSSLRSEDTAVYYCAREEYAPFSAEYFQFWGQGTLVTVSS VL: EIVLTQSPATLSLSPGERATLSCRASQIVSSYLAWYQQKPGQAPRLLIYDASNRATGIPARFSGSGSGTDFTLTISSLEPEDFAVYYCQQRSNWPPWTFGQGTKVEIKR | 386
